biological target: High affinity nerve growth factor receptor (Rattus norvegicus, UniProt P35739); assay: Inhibition of TrkA autophosphorylation in rat CD8-TrkA cells by Western blotting analysis
Sequence (P35739 whole entry): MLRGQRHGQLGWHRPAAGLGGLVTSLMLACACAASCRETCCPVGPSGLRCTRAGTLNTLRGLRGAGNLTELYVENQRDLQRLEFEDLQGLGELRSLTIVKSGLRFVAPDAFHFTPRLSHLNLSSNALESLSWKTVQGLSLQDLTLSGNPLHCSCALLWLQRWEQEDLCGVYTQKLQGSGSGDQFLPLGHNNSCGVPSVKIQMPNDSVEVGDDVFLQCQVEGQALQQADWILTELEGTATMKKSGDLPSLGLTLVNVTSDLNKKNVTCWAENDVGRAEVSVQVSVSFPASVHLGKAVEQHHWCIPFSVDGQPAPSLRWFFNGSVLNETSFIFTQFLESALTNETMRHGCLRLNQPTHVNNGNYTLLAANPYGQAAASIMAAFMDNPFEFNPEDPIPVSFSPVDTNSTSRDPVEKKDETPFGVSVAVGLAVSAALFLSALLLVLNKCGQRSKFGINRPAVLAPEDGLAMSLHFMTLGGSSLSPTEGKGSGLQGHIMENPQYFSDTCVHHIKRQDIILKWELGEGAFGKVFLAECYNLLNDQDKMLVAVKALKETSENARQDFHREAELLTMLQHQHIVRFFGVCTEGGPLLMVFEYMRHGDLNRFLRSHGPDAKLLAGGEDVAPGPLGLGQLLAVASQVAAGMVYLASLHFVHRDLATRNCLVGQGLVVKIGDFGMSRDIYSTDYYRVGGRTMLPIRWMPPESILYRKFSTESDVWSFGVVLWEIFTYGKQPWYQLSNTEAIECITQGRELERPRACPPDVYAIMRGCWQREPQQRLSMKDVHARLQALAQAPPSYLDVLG
REPORTED ENDPOINT: IC50 (nM)
Express it in nM; write the number only.

Which IC50 is reported for this molecule? `C[C@@]1(C(=O)Nc2ccc(F)nc2)CCCN1c1nc(Nc2cc(C3CC3)n[nH]2)c2cccn2n1` 1020
